Measured log(activity), listed per entry.
Molecular target: Muscarinic acetylcholine receptor M4 (Homo sapiens) (UniProt P08173)
Test: Displacement of [3H]NMS from human M4 mAChR expressed in FIpIn-CHO cells assessed as ligand affinity after 4 hrs by scintillation counting method in the presence of ACh
Assay type: cell-based
Form: value (number only, do not type unit).

Example compounds with recorded log(activity):
CCOc1nc2sc(C(=O)NC3CC3)c(N)c2c(C)c1Cl 1.98
COc1nc2sc(C(=O)NC3CC3)c(N)c2c(C)c1I 2.43
COc1nc2sc(C(=O)NC3CC3)c(N)c2c(C)c1Cl 3.24

State its log(activity) for this compound: CCCCNC(=O)c1sc2nc(OC)c(Cl)c(C)c2c1N
2.09

State its log(activity) for this compound: CCCCOc1nc2sc(C(=O)NC3CC3)c(N)c2c(C)c1Cl
1.35

State its log(activity) for this compound: CCNC(=O)c1sc2nc(OC)c(Cl)c(C)c2c1N
2.75

State its log(activity) for this compound: COc1nc2sc(C(=O)NC3CC3)c(N)c2c(C)c1Br
2.54

----------
Biological target: UniProt P08173
Assay: Allosteric modulation of human M4 mAChR expressed in FIpIn-CHO cells assessed as ERK1/2 phosphorylation measured overall cooperativity after 6 mins by Alphascreen assay
Assay type: cell-based
Calls of active or inactive are those of the source. The rule behind the calls is not given here.
REPORTED METRIC: log(activity)

COc1nc2sc(C(=O)NC3CC3)c(N)c2c(C)c1Br 1.91
Cc1cc(C)c2c(N)c(C(=O)NC3CC3)sc2n1 1.72
Cc1nc(C)c2c(N)c(C(=O)NC3CC3)sc2n1 1.15
COc1nc2sc(C(=O)NC3CC3)c(NC(C)=O)c2c(C)c1Cl inactive

GET log(activity) where system = UniProt P08173 and item = COc1nc2sc(C(=O)NC3CC3)c(N)c2c(C)c1Cl
2.38

GET log(activity) where system = UniProt P08173 and item = COc1nc2sc(C(=O)NC3CC3)c(N)c2c(C)c1I
0.97

GET log(activity) where system = UniProt P08173 and item = CCOc1nc2sc(C(=O)NC3CC3)c(N)c2c(C)c1Cl
1.79

GET log(activity) where system = UniProt P08173 and item = CCCCCCNC(=O)c1sc2nc(OC)c(Cl)c(C)c2c1N
0.13

GET log(activity) where system = UniProt P08173 and item = Cc1nc2sc(C(=O)NC3CC3)c(N)c2c(C)c1Cl
1.89

----------
Target: Muscarinic acetylcholine receptor M4 (Homo sapiens) (UniProt P08173)
Sequence (whole entry): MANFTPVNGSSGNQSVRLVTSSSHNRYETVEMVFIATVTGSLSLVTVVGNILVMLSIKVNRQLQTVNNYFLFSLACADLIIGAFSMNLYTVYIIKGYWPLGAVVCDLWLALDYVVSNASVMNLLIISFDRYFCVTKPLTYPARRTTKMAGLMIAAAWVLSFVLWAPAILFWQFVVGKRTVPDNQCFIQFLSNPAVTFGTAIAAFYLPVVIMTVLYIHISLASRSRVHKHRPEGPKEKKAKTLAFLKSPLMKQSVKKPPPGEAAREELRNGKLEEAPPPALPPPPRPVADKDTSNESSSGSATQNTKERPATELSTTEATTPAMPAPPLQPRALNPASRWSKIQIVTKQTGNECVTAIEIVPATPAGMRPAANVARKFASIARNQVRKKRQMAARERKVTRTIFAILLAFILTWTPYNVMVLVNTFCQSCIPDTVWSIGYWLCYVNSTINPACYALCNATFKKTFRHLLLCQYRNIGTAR
Assay: Intrinsic activity at human M4 mAChR expressed in FIpIn-CHO cells assessed as ERK1/2 phosphorylation after 6 mins by Alphascreen assay in the presence of ACh
Format: cell-based
Measured log(IA), listed per entry.

Example compounds with recorded log(IA):
COc1nc2sc(C(=O)NC3CC3)c(N)c2c(C)c1Cl 0.93
CCCCNC(=O)c1sc2nc(OC)c(Cl)c(C)c2c1N 0.44

State its log(IA) for this compound: Cc1cc(C)c2c(N)c(C(=O)NC3CC3)sc2n1
0.77
